molecular target: rNav1.2 sodium channels (HEK-293 cells) (Rattus norvegicus, UniProt P04775); assay: steady-state inactivation protocol (availability curves), QPatch automated patch-clamp; format: cell-based; settings: arithmetic mean; 100 µM; read-out: Kr arith
Sequence (P04775 whole entry): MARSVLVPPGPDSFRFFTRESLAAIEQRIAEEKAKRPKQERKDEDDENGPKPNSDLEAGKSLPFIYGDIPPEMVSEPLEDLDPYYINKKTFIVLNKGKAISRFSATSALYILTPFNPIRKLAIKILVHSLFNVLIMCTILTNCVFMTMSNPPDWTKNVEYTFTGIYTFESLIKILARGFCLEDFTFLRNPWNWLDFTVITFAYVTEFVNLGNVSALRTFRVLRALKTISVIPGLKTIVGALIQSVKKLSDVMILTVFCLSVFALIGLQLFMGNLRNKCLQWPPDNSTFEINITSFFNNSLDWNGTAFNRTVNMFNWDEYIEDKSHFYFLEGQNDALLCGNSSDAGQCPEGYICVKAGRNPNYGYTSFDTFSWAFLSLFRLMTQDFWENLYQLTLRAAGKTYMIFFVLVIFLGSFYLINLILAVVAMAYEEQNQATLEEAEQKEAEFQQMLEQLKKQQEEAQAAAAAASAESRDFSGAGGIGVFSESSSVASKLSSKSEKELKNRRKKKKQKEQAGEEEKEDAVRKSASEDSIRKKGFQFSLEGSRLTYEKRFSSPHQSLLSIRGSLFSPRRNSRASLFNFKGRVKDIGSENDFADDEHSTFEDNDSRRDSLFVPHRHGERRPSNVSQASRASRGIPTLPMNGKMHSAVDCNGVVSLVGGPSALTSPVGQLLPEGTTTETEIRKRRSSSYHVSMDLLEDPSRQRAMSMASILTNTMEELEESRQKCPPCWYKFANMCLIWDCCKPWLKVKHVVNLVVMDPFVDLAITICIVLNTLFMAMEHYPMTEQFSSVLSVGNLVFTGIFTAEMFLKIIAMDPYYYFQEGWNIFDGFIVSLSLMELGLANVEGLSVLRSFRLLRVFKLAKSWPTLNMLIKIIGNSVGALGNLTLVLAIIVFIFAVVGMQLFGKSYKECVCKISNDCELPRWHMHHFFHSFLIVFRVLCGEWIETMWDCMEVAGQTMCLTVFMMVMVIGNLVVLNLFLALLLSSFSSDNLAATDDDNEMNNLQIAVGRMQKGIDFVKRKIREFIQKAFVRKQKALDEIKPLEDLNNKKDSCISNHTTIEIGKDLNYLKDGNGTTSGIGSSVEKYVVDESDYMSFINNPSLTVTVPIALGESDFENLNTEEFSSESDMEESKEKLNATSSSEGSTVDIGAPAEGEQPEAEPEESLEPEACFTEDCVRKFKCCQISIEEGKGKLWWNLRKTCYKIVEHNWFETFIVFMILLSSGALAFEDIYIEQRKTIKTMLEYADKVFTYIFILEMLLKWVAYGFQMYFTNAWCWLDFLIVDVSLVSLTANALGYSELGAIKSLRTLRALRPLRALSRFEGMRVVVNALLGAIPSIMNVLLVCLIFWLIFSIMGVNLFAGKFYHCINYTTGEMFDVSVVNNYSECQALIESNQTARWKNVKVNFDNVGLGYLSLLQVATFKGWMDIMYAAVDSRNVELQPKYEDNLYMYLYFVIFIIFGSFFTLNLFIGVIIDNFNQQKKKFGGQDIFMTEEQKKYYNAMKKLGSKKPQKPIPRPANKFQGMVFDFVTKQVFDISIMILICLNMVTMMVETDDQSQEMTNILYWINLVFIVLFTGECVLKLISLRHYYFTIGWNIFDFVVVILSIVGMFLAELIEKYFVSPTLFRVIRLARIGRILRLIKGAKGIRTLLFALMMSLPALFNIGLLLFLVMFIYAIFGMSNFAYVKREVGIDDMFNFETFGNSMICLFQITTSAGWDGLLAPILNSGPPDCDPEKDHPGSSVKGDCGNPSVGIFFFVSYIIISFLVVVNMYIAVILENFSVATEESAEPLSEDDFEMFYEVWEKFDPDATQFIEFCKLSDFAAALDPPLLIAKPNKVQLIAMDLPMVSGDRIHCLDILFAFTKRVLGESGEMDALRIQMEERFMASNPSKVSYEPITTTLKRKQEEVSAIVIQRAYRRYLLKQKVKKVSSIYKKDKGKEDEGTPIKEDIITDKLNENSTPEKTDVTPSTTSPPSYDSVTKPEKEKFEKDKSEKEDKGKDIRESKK
observedProperty: Kd (µM)
State the answer as a number, implicitly in µM.

CC(NC(C)(C)C)C(=O)c1cccc(Cl)c1 (stereo not shown) [BPR, Bupropion]	733

// sample O=C(O)Cc1ccccc1Nc1c(Cl)cccc1Cl [DIC, Diclofenac] , its Kd was 3300

// sample CN1CCN2c3ncccc3Cc3ccccc3C2C1 (stereo not shown) [MRZ, Mirtazapine] , its Kd was 317

// sample Cc1ccc(C(=O)C(C)CN2CCCCC2)cc1 (stereo not shown) [TOL, Tolperisone] , its Kd was 399
